Origin of the recorded values: patent US20250122306A1

target_of_assay: T1, human tissue factor on cells (human, UniProt P13726 33-295)
T1 construct: cell-surface TF, transfected (HEK293T-humanTF) or endogenous (tumour lines, keratinocytes); the cell line is named under assay; also called HEK293T-humanTF; TF on BxPC3, primary human keratinocytes, NCI-H292, HCC1954, NCI-H1975
measurement_notes: flow cytometry on HEK293T-humanTF cells, one-site fit of MFI
Recorded Kd values for a group of binders are listed next.
Write the value in nM as a bare number.

# binder mAb 37: aTF_2842-B01_Hc3_Y180/F404TAG pAzMeF; aTF_2842-B01_Lc2 (antibody, IgG1, V domains shown, pAzMeF at Y180 and F404 (EU), * in the sequence, unconjugated full-length IgG1/kappa, cell-free expressed; also called 2842-B01 HC3/LC2; 2842-B01-HC3/LC2 Y180/F404) VH: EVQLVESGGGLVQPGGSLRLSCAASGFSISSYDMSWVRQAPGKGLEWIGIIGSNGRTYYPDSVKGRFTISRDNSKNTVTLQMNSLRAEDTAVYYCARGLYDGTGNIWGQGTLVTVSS VL: ELVMTQSPPTLSLSPGERVTLSCRASQSVYGNNWLSWYQQKPGQAPRLLIYGASKLATSIPARFSGSGSGTQFTLTISSLQPEDFAVYYCQGTYYSGDWYFAFGQGTKVEIKR ; its Kd = 3.9

# binder mAb 48: aTF_2842-B01_HC1_Y180/F404TAG; aTF_2842-B01_LC3 (antibody, IgG1, V domains shown, non-natural amino acid (pAMF) at TAG sites Y180 and F404 (EU), * in the sequence, unconjugated full-length IgG1/kappa; also called 2842-B01 HC1/LC3) VH: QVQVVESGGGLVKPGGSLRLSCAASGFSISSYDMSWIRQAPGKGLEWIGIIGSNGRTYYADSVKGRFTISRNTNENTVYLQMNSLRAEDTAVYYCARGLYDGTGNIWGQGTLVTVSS VL: DIQMTQSPSSLSASVGDRVTITCQASQSVYGNNWLSWYQQKPGKAPKLLIYGASKLASGVPSRFSGSGSGTDFTLTISSLQPEDFATYYCQGTYYSGDWYFAFGGGTKVEIKR ; its Kd = 2.3

# binder mAb 49: aTF_2842-G04_HC2_Y180/F404TAG; aTF_2842-G04_LC2 (antibody, IgG1, V domains shown, non-natural amino acid (pAMF) at TAG sites Y180 and F404 (EU), * in the sequence, unconjugated full-length IgG1/kappa; also called 2842-G04 HC2/LC2) VH: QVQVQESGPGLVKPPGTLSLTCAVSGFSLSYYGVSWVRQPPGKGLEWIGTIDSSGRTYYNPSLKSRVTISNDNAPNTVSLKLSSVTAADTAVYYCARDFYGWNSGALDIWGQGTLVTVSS VL: DLQLTQSPSTLSASVGDRVTITCRASQSVYSNKYLSWYQQKPGKAPKLLIYKASTLASGVPSRFSGSGSGTEFTLTISSLQPDDFATYYCAAAYSDDSDTAFGQGTKVEIKR ; its Kd = 1.4

# binder mAb 47: aTF_2842-B01_HC3_Y180/F404TAG; aTF_2842-B01_LC1 (antibody, IgG1, V domains shown, non-natural amino acid (pAMF) at TAG sites Y180 and F404 (EU), * in the sequence, unconjugated full-length IgG1/kappa; also called 2842-B01 HC3/LC1) VH: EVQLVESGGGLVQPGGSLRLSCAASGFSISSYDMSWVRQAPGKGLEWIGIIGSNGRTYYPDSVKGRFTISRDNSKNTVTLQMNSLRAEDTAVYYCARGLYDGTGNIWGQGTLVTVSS VL: DLQMTQSPSSLSASVGDRVTITCRASQSVYGNNWLSWYQQKPGKAPKLLIYGASKLASGVPSRFSGSGSGTQFTLTISSLQPEDFATYYCQGTYYSGDWYFAFGQGTKVEIKR ; its Kd = 3.3
